Where these numbers come from: patent US6527981B1

I'd appreciate it if you could supply Qa, concentration of amine oxide alone required to yield 100% retardation, P. placenta values for the items below.
Tested on: P. placenta (brown rot fungi)
Experiment description: agar dilution plate method, wood rot fungi (MIC, IC50, percent retardation)
Type: cell-based
Applied conditions: amine oxide alone
One number for each entry, in ppm.

Known results for compounds:
CCCCCCCCCCCCCCCCCCCCCC[N+](C)(C)[O-] :: 1000
CCCCCCCCCCCCCC[N+](C)(C)[O-] [Tetradecyl-DMAO, tetradecyl dimethylamine oxide] :: 1000
CCCCCCCCCCCCCCCCCC[N+](C)(C)[O-] [Octadecyl-DMAO, octadecyl dimethylamine oxide] :: 1000
CCCCCCCC[N+](C)(C)[O-] [Octyldimethylamine oxide, octyl dimethylamine oxide] :: 1000
CCCCCCCCCCCCCCCC[N+](C)(C)[O-] [Hexadecyl-DMAO, hexadecyl dimethylamine oxide] :: 1000

I'm hoping you can list Qa, concentration of amine oxide alone required to yield 100% retardation, P. placenta for every compound here, please.
1. CCCCCCCCCCCC[N+]1([O-])CCOCC1 [Lauryl morpholine N-oxide, lauryl morpholine N-oxide]
2. CCCCCCCCCCCC[N+](C)(C)[O-] [Dodecyl-DMAO, dodecyldimethylamine oxide]
3. CCCCCCCCCC[N+](C)(C)[O-] [Decyl-DMAO, decyl dimethylamine oxide]

[500, 250, 500]
